The origin of these recorded values is PubChem BioAssay AID1066.

# Tested on: HMG-CoA reductase (Enterococcus faecalis, mvaE)
# testProtocol: class II HMG-CoA reductase enzyme inhibition – biochemical, Enterococcus faecalis, primary screen (AID 1066);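 further: enzyme runs in reverse so mevalonate oxidation gives rising NADPH absorbance; 0% = complete reaction with DMSO and 100% = background rate lacking mevalonate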
# measurementParameters: purified E. faecalis HMGR, NADPH absorbance 340 nm kinetic; at 10 µM; hits give high values
Hit rate of the full screen: of about 190,000 compounds, about 790 (0.42%) were called active. This is one part of a sample in which actives are shown more often than they occur.
readoutLabel: inhibition (%)
State the answer as a number, implicitly in %.

q: Checklist item: inhibition tested on HMG-CoA reductase (Enterococcus faecalis, mvaE), entry Cc1cc(C)c[n+](-c2nc3ccccc3nc2[N-]S(=O)(=O)c2cccs2)c1 , value?
a: -2.15

q: Checklist item: inhibition tested on HMG-CoA reductase (Enterococcus faecalis, mvaE), entry CC(OC(=O)CCc1nc(=O)c2ccccc2n1C)C(=O)NCc1ccc2c(c1)OCO2 (stereo unspecified) , value?
a: 2.38

q: Checklist item: inhibition tested on HMG-CoA reductase (Enterococcus faecalis, mvaE), entry CCC(=O)Nc1ccc(Nc2nc(Cl)nc(Nc3ccc(NC(=O)CC)cc3)n2)cc1 , value?
a: -2.77

q: Checklist item: inhibition tested on HMG-CoA reductase (Enterococcus faecalis, mvaE), entry CCCn1c(=S)[nH]c2ccc(C(F)(F)F)cc21 , value?
a: -3.38

q: Checklist item: inhibition tested on HMG-CoA reductase (Enterococcus faecalis, mvaE), entry O=C(COC(=O)CNS(=O)(=O)c1ccccc1)NC12CC3CC(CC(C3)C1)C2 , value?
a: -0.89

q: Checklist item: inhibition tested on HMG-CoA reductase (Enterococcus faecalis, mvaE), entry Cc1ccc(S(=O)(=O)N2CCOCC2)cc1C(=O)NCc1ccc(F)cc1 , value?
a: -7.95

q: Checklist item: inhibition tested on HMG-CoA reductase (Enterococcus faecalis, mvaE), entry CC(C)(C)NC(=O)CN(C(=O)c1csnn1)c1ccccc1-c1ccccc1 , value?
a: 3.37

q: Checklist item: inhibition tested on HMG-CoA reductase (Enterococcus faecalis, mvaE), entry S=c1[nH]ccn1-c1ccc(Cl)cc1 , value?
a: -3.58

q: Checklist item: inhibition tested on HMG-CoA reductase (Enterococcus faecalis, mvaE), entry O=C(CSc1nnc(Cn2cnc3ccccc32)o1)c1ccccc1 , value?
a: -2.99

q: Checklist item: inhibition tested on HMG-CoA reductase (Enterococcus faecalis, mvaE), entry C[C@@H](O)c1nc2ccccc2n1N , value?
a: 0.29

q: Checklist item: inhibition tested on HMG-CoA reductase (Enterococcus faecalis, mvaE), entry CCOc1ccc(Nc2nc(Cc3nnc(SCC(=O)c4ccc(C)cc4)o3)cs2)cc1 , value?
a: -4.07
